Target: EcCc Hfq (Escherichia coli / Caulobacter …, UniProt P0A6X3 1-67+B8GW92:71-82, internal_change)
Test: EMSA; Hill n 1.6; EMSA: 34 mM Tris-HCl pH 7.5, 50 mM NaCl, 50 mM KCl, 50 mM NH4Cl, 11.4 mM EDTA, 12% glycerol, 30 C, 30 min, ~1 nM 32P-RNA, Kd in Hfq6; anisotropy: 10 mM Tris-HCl
Settings: protein: recombinant; tags: untagged; chain copies: 6; label: 32P; stem-loops
assay-metric: Kd (nM)
Only the number, expressed in nM, is required.

stdin: # return recorded Kd for input ChvR (structured_RNA) RNA: GGCGGGGCCUACAUGUCGCGCAAGUCUCCGGAGGGCCAUUCCGAGGCGGGGCCCGCUCCAGCGUCCUCAUUGGAGCGGGCGUCU
stdout: 228
